# TEST: doxorubicin toxicity protection in MRP-1 cells – H69AR cells, CellTiter-Glo, duplicate, MRP-1 activator project, pilot screen (AID 807);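 further: compound pretreatment 18-22 h then 72 h combined with doxorubicin; 0% = doxorubicin alone and 100% = vehicle without doxorubicin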
# TEST_SETTINGS: H69AR viability with doxorubicin, CellTiter-Glo luminescence; at 10 µM; stronger effect = higher value
OBSERVABLE: viability increase (%)
Output spec: scalar in %, unitless text.

Task: Form field: reported viability increase of CCOC(=O)c1cc(NC(=O)SCC(=O)O)c(C)nc1C
Result: 2.31

Task: Lookup COc1ccccc1C(=O)OCn1nnc2ccccc2c1=O
Result: -0.53

Task: # repeat for CCOC(=O)N1CCC(NC(=O)C2CCCN(C(=O)c3cc4sccc4n3C)C2)CC1 (stereo not drawn)
Result: 0.63

Task: Same thing, different compound: COCc1nnc(NC(=O)c2ccc(S(=O)(=O)N(C)c3ccccc3)cc2)o1
Result: -5.06

Task: Would you mind doing Cn1c(=O)c2cc(NCc3ccccc3)nnc2n(C)c1=O as well?
Result: -2.1

Task: Moving on to CCn1cc(C(=O)NC2CCCCC2)c(=O)c2cc(S(=O)(=O)N(C)C)ccc21
Result: -1.45

Task: Would you mind doing O=C1C2C3C=CC(C3)C2C(=O)N1c1cccc(N2C(=O)C3C4C=CC(C4)C3C2=O)n1 (stereo not drawn) as well?
Result: -0.89

Task: Here is the next compound: CSc1ccc(C2NC(=O)c3c(sc4c3CCN(C)C4)N2)cc1 (stereo not drawn)
Result: -2.7

Task: Please do the same for CC(=O)OC1c2c(ccc3ccc(=O)oc23)OC(C)(C)C1OC(=O)CC(C)C (stereo not drawn) as well.
Result: 1.31

Task: Further, for CCOC(=O)COn1c(=O)c(=O)n(O)c2ccccc21 ?
Result: -4.99

Task: Again, but for CC(=O)NCc1cn2c(C)csc2n1
Result: -3.88

Task: O=C(Nc1nc(-c2ccccn2)cs1)C1CC1 , same question.
Result: 0.73

Task: Now this one: CCCn1c(CN2CCN(C(=O)c3ccco3)CC2)nc2c1c(=O)n(C)c(=O)n2C
Result: -1.84

Task: Same question, O=C(Nc1ccc(CN2CCOCC2)cc1)c1cc2ccccn2n1 this time
Result: 2.39

Task: Moving on to FC(F)(F)COc1nc(N2CCCCC2)nc(N2CCNCC2)n1
Result: -3.4

Task: Now consider CCOc1ccc(N(CC(=O)NCc2ccco2)S(=O)(=O)c2ccc(OC)c(OC)c2)cc1 .
Result: -4.63

Task: Moving on to the next compound: c1ccc(C2(Cn3ccc4ccccc43)OCCO2)cc1
Result: -3.2

Task: What about this compound? COc1ccc(S(=O)(=O)N2CCCN(S(=O)(=O)c3ccc(OC)cc3C)CC2)c(C)c1
Result: -6.52

Task: Then COC(=O)c1cc(=O)[nH]c(SCc2cccc(C)c2)n1 ?
Result: -3.27

Task: Same question for CCn1cc(C(=O)NCC2CCCO2)c(=O)c2cc(S(=O)(=O)N(C)C)ccc21 (stereo not drawn) please.
Result: -0.77

Task: Same read-out for Cc1cc(Nc2ccc(C)c(Br)c2)n2nc(C)nc2n1 ?
Result: -5

Task: Continue with Cc1ccc(S(=O)(=O)NCCSc2nnnn2-c2ccc(C(N)=O)cc2)cc1
Result: -1.69

Task: Proceed to COc1ccccc1NC(=O)N(C1CCCC1)C1CCN(C(C)=O)CC1
Result: -2.01

###

Can you tell me RAM network inhibition for the items I'm about to list?
# TEST: RAM signaling pathway blockade in yeast – S. cerevisiae, Pdr1DBD-CYC8 efflux-inhibited sensitized strain, primary screen (AID 1298);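 further: 0% = DMSO untreated cells without growth and 100% = 10 µM 1-NA-PP1 full growth; higher means more yeast growth rescued from 5-FOA killing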
# TEST_SETTINGS: S. cerevisiae cbk1-as DSE1-URA3 strain, 5-FOA growth OD615, 2 d; at 50 µM; stronger effect = higher value
Give just the numeric value; % need not be written.

Task: Given the entry CCCCN(C)C(=O)c1cn(C)c2ccc(S(=O)(=O)N(C)C)cc2c1=O , report its measured RAM network inhibition.
Result: 2.99

Task: Can you check COC(=O)c1cn(C(=O)c2ccc(Br)o2)c2ccccc12 next?
Result: 4.65

Task: Subsequent entry: CC1=C(C(N)=O)C(c2ccccn2)n2nc(-c3ccccc3Cl)nc2N1 (stereo unspecified)
Result: 3.22

Task: Follow-up item: CC(C)CCNC(=O)Cn1c(NCCC(C)C)nc2c1c(=O)n(C)c(=O)n2C
Result: -0.63

Task: Again, but for Cc1c(NC(=O)c2ccc(Br)o2)c(=O)n(-c2ccccc2)n1C
Result: 2.23

Task: Follow-up entry: O=C(C1CCN(c2nnc(-n3cccc3)s2)CC1)N1CCOCC1
Result: 6.37

Task: Try the molecule C(/CCc1ccccc1)=N\n1cnnc1
Result: 5.92

Task: And then O=C(CSc1nnnn1-c1ccccc1)Nc1ccc(Cl)cc1 , what is it?
Result: 2.55

Task: Note, next up: COc1ccc(C2C(C(=O)NCc3cccnc3)c3ccccc3C(=O)N2C)cc1OC (stereo unspecified)
Result: -0.99

Task: Also need COC(=O)c1nnc(-c2ccccc2)c(-c2ccccc2)n1 , thanks.
Result: 9.17

Task: Another molecule to look at: COc1ccccc1N(CC(=O)NCc1ccccn1)S(C)(=O)=O
Result: 4.8

###

# TEST: Her2 expression decrease, cell viability multiplex – SKBR3 breast tumor cells, AlphaScreen, ATP viability, primary screen (AID 461);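 further: percent of carrier control wells set as 100% viability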
# TEST_SETTINGS: SKBR3 Her2 protein level, 18-24 h, measured here: SKBR3 viability, ATP luminescence, at 10 µM
Rule: measured viability below 90% gets Condition met; anything equal to or greater than 90% gets Condition not met.

Task: hey, is viability for COc1cc(NC(=O)c2nccnc2C(=O)O)cc(OC)c1 lower than 90% or not?
Result: Condition not met

Task: Another: Cc1cc(C)nc(NC2=NCC(=O)N2c2ccccc2Br)n1
Result: Condition not met

Task: Okay, and CCOCC(=O)Nc1nc2c(s1)C(=O)CC(C)(C)C2 ?
Result: Condition met

Task: How about this compound: O=S(=O)(c1ccccc1)N1CCN(S(=O)(=O)c2ccccc2)C1
Result: Condition met

Task: Similarly, CC1CCCN(C(=O)C23CCC(C)(C(=O)C2)C3(C)C)C1 (stereo unspecified) ?
Result: Condition not met

###

# TEST: S. cerevisiae growth inhibition in permissive medium (OD615), pilot counter-assay for S. cerevisiae lifespan shortening project, permissive growth control (AID 705)
# TEST_SETTINGS: OD615, 24 h, at 10 µM, stronger effect = higher value
OBSERVABLE: growth inhibition (%)
Write it as a number; the unit % goes unstated.

Task: // growth inhibition lookup, key: O=C(Nc1ccncc1)c1cc2ccccc2o1
Result: -10.7

Task: Next entry: Cc1cc(NC(=O)COc2cccc(C)c2C)no1
Result: -0.27

Task: Now try COC(=O)C1C(=O)c2c([nH]c(C(=O)OC3CCCCCC3)c2C)CC1C (stereo unspecified) .
Result: 1.09

Task: Request: Cc1ccc(S(=O)(=O)N(CC(=O)N2CCC(C(N)=O)CC2)Cc2ccc(F)cc2)cc1
Result: -1.11

Task: Let us now turn to CCOc1ccc(OCC)c(Nc2cc(C)nc3nc(C)nn23)c1
Result: -13.3

Task: Entry CC(c1ccco1)N(C(=O)c1ccc(S(=O)(=O)N2CCCCC2)cc1)c1ccccn1 (stereo unspecified) please
Result: -17.7

Task: Would you mind doing Cc1ccc(/C=N/n2c(C)nnc2C)cc1 as well?
Result: -5.29

Task: Next molecule up: CCN(CC)CCCNC(=O)c1cn(C)c2ccc(S(=O)(=O)N(C)C)cc2c1=O
Result: -1.33

Task: Please do the same for CN(CCNS(=O)(=O)c1ccc2c(c1)oc(=O)n2C)Cc1ccccc1 as well.
Result: -2.83

Task: Can you handle Cc1ccc(CN2CCNC(=O)C2CC(=O)O)cc1 (stereo unspecified) next?
Result: 2.7

Task: Next up: O=C(Nc1nnc(-c2ccccc2)s1)c1ccc(Cl)c(S(=O)(=O)N2CCOCC2)c1
Result: -16.8

###

Could you please report measured inhibition for the items listed next?
# TEST: RAM pathway blockade in budding yeast – dse1pr::URA3 reporter, 5-FOA selection, pilot screen (AID 869);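 further: 0% = DMSO wells with no growth and 100% = 10 µM 1-NA-PP1 with full growth; RAM network block rescues cells from 5-FOA so hits raise OD615 growth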
# TEST_SETTINGS: S. cerevisiae dse1pr::URA3 5-FOA growth, OD615, 2 d; at 10 µM; stronger effect = higher value; strain carries analog-sensitive mutant Cbk1 kinase
Form entry: value (%) — number only.

Task: So what's the measured inhibition for this one? CC1=C(C(=O)Nc2ccc(F)cc2)C(c2cccc(C)c2)n2nc(CCCO)nc2N1 (stereo unspecified)
Result: -0.19

Task: Then this compound: CCOC(=O)c1ccc(N2C(=O)C3CC=C(C)CC3C2=O)cc1 (stereo unspecified)
Result: 1.07

Task: Repeat for the following compound: CCCCNC(=O)Cn1c(=O)n(C)c2ccccc21
Result: 1.49

Task: For COC(=O)c1oc2ccc(Br)cc2c1NC(=O)CCCN1C(=O)c2ccccc2C1=O then?
Result: 2.69

Task: Now the compound CCC1CCCCN1CCCNC(=O)CC1Oc2ccc(C)cc2NC1=O (stereo unspecified)
Result: 1.57

Task: // query: COc1cc2c(cc1OC)CN(C(=O)CSc1nc3[nH]ncc3c(=O)n1-c1ccccc1)CC2
Result: 1.19

Task: Next up: COc1ccc(NC(=O)C2CCCCN2S(=O)(=O)c2ccc(F)cc2)cc1 (stereo unspecified)
Result: 1.19

Task: Repeat with COc1ccc(C(=O)NCc2nnc(SC)n2C2CCCCC2)cc1
Result: 1.08

Task: Then what about the compound CCCC(=O)NC(C)c1nc2ccccc2n1C(C)C (stereo unspecified) ?
Result: 0.475

Task: Then this compound: CCC1CCCCN1CCNS(=O)(=O)c1ccc2c(c1)oc(=O)n2C (stereo unspecified)
Result: 2.01

Task: One more compound: Cc1ccc(S(=O)(=O)C(C#N)c2nc3ccccc3nc2N2CCCCC2)cc1 (stereo unspecified)
Result: 2.7
